Tested on: SW-620 colon
Assay: NCI tumour cell line growth inhibition, 48 h
REPORTED ENDPOINT: TGI (µM)

{"SAMPLE SMILES": "Cc1cc(C)nc(/C(=N\\NC(N)=O)C(=O)Nc2nc3ccc(C)cc3s2)c1", "UNIT SYMBOL": "µM", "INEQUALITY SIGN": ">", "ENDPOINT RESULT": 100}
{"SAMPLE SMILES": "CCOC(=O)CN(Cn1cncn1)Cn1cncn1", "UNIT SYMBOL": "µM", "INEQUALITY SIGN": "=", "ENDPOINT RESULT": 60}
{"SAMPLE SMILES": "C=C1C(=O)O[C@H]2[C@H]1CC/C(COC(=O)NCc1ccc(OC)cc1)=C\\CC[C@@]1(C)O[C@@H]21", "UNIT SYMBOL": "µM", "INEQUALITY SIGN": "=", "ENDPOINT RESULT": 1.55}

====

Test system: NCI-H522 lung
Test: NCI tumour cell line growth inhibition, 48 h; in the data active means GI50 below about 0.43 µM; inactive means the rest
Outcome codes: active, inactive

{"MOLECULE": "COC(=O)c1cc2c(cc1Cl)SC1=NN(C)S(=O)N1S2(=O)=O (stereo not given)", "TESTED SYSTEM": "NCI-H522 lung", "CLASS LABEL": "inactive"}
{"MOLECULE": "CN1CCN(Cc2ccc(NC(=O)c3cncc(C#Cc4cnc(N)cc4C#N)c3)cc2C(F)(F)F)CC1", "TESTED SYSTEM": "NCI-H522 lung", "CLASS LABEL": "inactive"}
{"MOLECULE": "Cc1ncc(C(=O)Nc2ccc(CN3CCN(C)CC3)c(C(F)(F)F)c2)cc1C#Cc1ccc(N)nc1", "TESTED SYSTEM": "NCI-H522 lung", "CLASS LABEL": "active"}
{"MOLECULE": "CCCCCCCC(=O)OCCCC1[C@]2(C)CC[C@@]3(C)C([C@H](C)CCC=C(C)C)CC[C@]3(C)C2CC[C@]12OC2(C)C (stereo not given in full)", "TESTED SYSTEM": "NCI-H522 lung", "CLASS LABEL": "inactive"}
{"MOLECULE": "CN1CCN(CCOc2ccc(-c3cnc4c(-c5cccc(F)c5)cnn4c3)cc2)CC1", "TESTED SYSTEM": "NCI-H522 lung", "CLASS LABEL": "inactive"}

====

System: NCI-H23 lung
Test: NCI tumour cell line growth inhibition, 48 h
Reported GI50 values for the following compounds.

{"COMPOUND": "CCCCCCCC(=O)OCCCC1[C@]2(C)CC[C@@]3(C)C([C@H](C)CCC=C(C)C)CC[C@]3(C)C2CC[C@]12OC2(C)C (some centres not stated)", "GI50": "23.1 µM"}
{"COMPOUND": "CNNC(=N\\S(=O)(=O)c1cc(C)c(Cl)cc1SCc1ccccc1)/N=C/c1ccc([N+](=O)[O-])s1", "GI50": "> 100 µM"}
{"COMPOUND": "O=C(/C=C/c1ccc(C(F)(F)F)cc1)Nc1ccc(C=C2c3ccccc3C(=O)c3ccccc32)cc1", "GI50": "3.32 µM"}
{"COMPOUND": "CCn1c(-c2cc3c([nH]c4ccccc43)c(-c3cccc(O)c3)n2)n[nH]c1=S", "GI50": "3.11 µM"}
{"COMPOUND": "C[C@@H]1O[C@@H](O[C@H]2CC[C@]3(C=O)[C@H]4CC[C@]5(C)[C@@H](c6ccc(=O)oc6)CC[C@]5(O)[C@@H]4CC[C@]3(O)C2)[C@H](O)[C@H](O)[C@H]1O[C@@H]1O[C@H](CO)[C@@H](O)[C@H](O)[C@H]1O", "GI50": "< 3.75e-07 µM"}
{"COMPOUND": "CN1CCN(CCOc2ccc(-c3cnc4c(-c5cccc(F)c5)cnn4c3)cc2)CC1", "GI50": "1.87 µM"}
{"COMPOUND": "Cc1ncc(C(=O)Nc2ccc(CN3CCN(C)CC3)c(C(F)(F)F)c2)cc1C#Cc1ccc(N)nc1", "GI50": "0.6 µM"}

====

Let's look at some molecules and their measured TGI.
Test system: SNB-75 CNS
Assay: NCI tumour cell line growth inhibition, 48 h

{"MOLECULE": "Cc1cn(C2CC(CCCO)C(CO)O2)c(=O)[nH]c1=O (stereo not drawn)", "TGI": "> 100 µM"}
{"MOLECULE": "CCN(Cc1cc(F)ccc1F)c1ccc(CO)c(Cl)c1", "TGI": "35.6 µM"}
{"MOLECULE": "CC(C)(C)CC(C)(C)NC(=S)NO", "TGI": "> 100 µM"}

====

Tested on: HCT-116 colon
Assay: NCI tumour cell line growth inhibition, 48 h
// TGI lookup, one value per entry

{"MOLECULE": "CC(=O)OC1C2CCC3C(C)(O)C4CC(O)C(C)(C)C4(O)C(O)CC13CC2(C)O (centres undefined)", "TESTED SYSTEM": "HCT-116 colon", "TGI": "> 100 µM"}
{"MOLECULE": "CCN1CCN(Cc2ccc(NC(=O)Nc3nc4ccc(Oc5ccnc(C(=O)NC)c5)cc4s3)cc2C(F)(F)F)CC1", "TESTED SYSTEM": "HCT-116 colon", "TGI": "3.45 µM"}
{"MOLECULE": "Cc1ccc(Sc2ccccc2[N+](=O)[O-])cc1", "TESTED SYSTEM": "HCT-116 colon", "TGI": "> 100 µM"}
{"MOLECULE": "Cc1ccc(-c2cc(O)c3nc4ccccc4n3c2)cc1", "TESTED SYSTEM": "HCT-116 colon", "TGI": "> 100 µM"}
{"MOLECULE": "COC(=O)C12CC(NC(=O)c3csc([C@@H](C[C@H](C(C)C)N(C)C(=O)[C@@H](NC(=O)[C@H]4CCCCN4C)C4CC4)OC(C)=O)n3)(C1)C2", "TESTED SYSTEM": "HCT-116 colon", "TGI": "> 16.7 µM"}
{"MOLECULE": "O=C(/C=C/c1ccc(O)c(O)c1)NCc1c[nH]c2ccccc12", "TESTED SYSTEM": "HCT-116 colon", "TGI": "> 100 µM"}
{"MOLECULE": "[O-]c1ccccc1C=Nc1ccc2c(c1)CCC2.[O-]c1ccccc1C=Nc1ccc2c(c1)CCC2.[O]=[U+2]=[O]", "TESTED SYSTEM": "HCT-116 colon", "TGI": "> 100 µM"}
{"MOLECULE": "CCN1CCN(c2cc(C)nc(N(CCCNc3ccnc4cc(Cl)ccc34)Cc3ccc4c(c3)OCO4)n2)CC1", "TESTED SYSTEM": "HCT-116 colon", "TGI": "13.6 µM"}
{"MOLECULE": "CCSCN(C)c1nc(N(C)C)nc(N(C)C)n1", "TESTED SYSTEM": "HCT-116 colon", "TGI": "> 100 µM"}

====

Tested on: SK-OV-3 ovarian
Experiment: NCI tumour cell line growth inhibition, 48 h; in the data active means GI50 below about 0.43 µM; inactive means the rest
Possible outcomes: 1 for active, -1 for inactive

{"COMPOUND": "O=C(Nc1ccc(F)cc1F)c1cc(Cl)ccc1O", "TESTED SYSTEM": "SK-OV-3 ovarian", "CLASS LABEL": -1}
{"COMPOUND": "C1=C/COCc2cc(ccc2OCCN2CCCC2)Nc2nccc(n2)-c2ccc(o2)COC/1", "TESTED SYSTEM": "SK-OV-3 ovarian", "CLASS LABEL": -1}
{"COMPOUND": "CCN1CCN(Cc2ccc(NC(=O)Nc3nc4ccc(Oc5ccnc(C(=O)NC)c5)cc4s3)cc2C(F)(F)F)CC1", "TESTED SYSTEM": "SK-OV-3 ovarian", "CLASS LABEL": -1}
{"COMPOUND": "NS(=O)(=O)c1ccc(N=Nc2c(O)[nH]c3ccc(C(=O)NCc4ccncc4)cc23)cc1", "TESTED SYSTEM": "SK-OV-3 ovarian", "CLASS LABEL": -1}
{"COMPOUND": "CN(C)CCNC(=O)c1ccc(-c2nc3ccc4[nH]ncc4c3c3c2C2CCC3C2)cc1 (stereo unspecified)", "TESTED SYSTEM": "SK-OV-3 ovarian", "CLASS LABEL": 1}
{"COMPOUND": "Cc1ccc2nc(-c3ccc(OCC(=O)N=Nc4c(O)[nH]c5ccccc45)cc3)[nH]c2c1", "TESTED SYSTEM": "SK-OV-3 ovarian", "CLASS LABEL": -1}

====

Test system: OVCAR-4 ovarian
Test: NCI tumour cell line growth inhibition, 48 h; in the data active means GI50 below about 0.43 µM; inactive means the rest
Labels: active, inactive

{"COMPOUND": "COc1ccc(NC(=O)/C=C(C)/C=C/C=C(C)/C=C/C2=C(C)CCCC2(C)C)cc1", "CLASS LABEL": "inactive"}
{"COMPOUND": "O=C(Nc1ccc(F)cc1F)c1cc(Cl)ccc1O", "CLASS LABEL": "inactive"}
{"COMPOUND": "CN(Cc1ccc(C(F)(F)F)cc1)CC(O)C(=O)Nc1ccc(Cl)cc1 (stereo not given)", "CLASS LABEL": "inactive"}
{"COMPOUND": "CCCCCCCCOC(=O)c1c(C)[nH]c(/C=C2\\N=C(c3ccc[nH]3)C=C2OC)c1C", "CLASS LABEL": "active"}
{"COMPOUND": "c1cc(-c2nnc(SSc3ncnc4nc[nH]c34)o2)ccn1", "CLASS LABEL": "inactive"}
